Values were extracted from patent US8716316B2.

# ASSAYED_TARGET: human mGlu5a receptor (Homo sapiens)
# Construct: expressed in transfected cells
# Sequence (P41594 21-1180 isoform P41594-2 limits assumed): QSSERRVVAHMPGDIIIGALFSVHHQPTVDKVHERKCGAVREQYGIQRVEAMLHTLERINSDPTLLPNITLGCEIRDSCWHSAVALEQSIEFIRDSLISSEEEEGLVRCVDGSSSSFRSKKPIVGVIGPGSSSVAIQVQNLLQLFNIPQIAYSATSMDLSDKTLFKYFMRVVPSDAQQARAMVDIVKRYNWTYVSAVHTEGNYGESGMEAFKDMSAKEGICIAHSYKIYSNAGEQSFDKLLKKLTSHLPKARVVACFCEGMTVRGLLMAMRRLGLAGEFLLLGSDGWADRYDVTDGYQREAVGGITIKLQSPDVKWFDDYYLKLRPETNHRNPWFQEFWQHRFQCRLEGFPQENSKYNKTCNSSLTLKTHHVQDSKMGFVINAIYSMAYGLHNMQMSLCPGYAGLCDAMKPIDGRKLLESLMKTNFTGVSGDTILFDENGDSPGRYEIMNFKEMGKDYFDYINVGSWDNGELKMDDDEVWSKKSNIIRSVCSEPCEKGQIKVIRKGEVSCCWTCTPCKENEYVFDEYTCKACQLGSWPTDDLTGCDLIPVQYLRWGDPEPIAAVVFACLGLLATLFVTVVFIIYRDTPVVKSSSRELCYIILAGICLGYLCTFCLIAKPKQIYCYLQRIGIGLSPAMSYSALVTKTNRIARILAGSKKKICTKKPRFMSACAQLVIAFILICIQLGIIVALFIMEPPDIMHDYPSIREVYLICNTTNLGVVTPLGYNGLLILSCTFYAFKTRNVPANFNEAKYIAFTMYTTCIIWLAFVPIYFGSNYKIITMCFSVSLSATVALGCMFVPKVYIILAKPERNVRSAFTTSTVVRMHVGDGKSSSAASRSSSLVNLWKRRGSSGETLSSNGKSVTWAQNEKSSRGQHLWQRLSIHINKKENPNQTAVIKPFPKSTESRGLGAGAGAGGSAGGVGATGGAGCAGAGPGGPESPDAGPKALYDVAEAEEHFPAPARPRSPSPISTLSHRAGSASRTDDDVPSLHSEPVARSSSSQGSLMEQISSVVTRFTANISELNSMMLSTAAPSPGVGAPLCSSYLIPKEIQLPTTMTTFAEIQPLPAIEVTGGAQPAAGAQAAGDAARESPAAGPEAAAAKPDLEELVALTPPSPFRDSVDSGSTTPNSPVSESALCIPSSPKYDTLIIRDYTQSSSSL
# PROTOCOL_DESCRIPTION: Intracellular Ca2+ mobilization assay
# Format: cell-based
# CONDITION_LABEL: HEK-293 cells stably transfected with human mGlu5a receptor; pre-incubation 10-30 min with test compound, then L-glutamate at EC20 (typically around 80 μM); Fluo-4AM fluorescence; read-out: EC50 (nM) mGluR5 PAM
MEASURE_NAME: EC50 (nM)

Illustrative cases are given below, each with its answer.
C[C@H]1CC[C@H](Nc2ncc(C#Cc3ccccc3)cn2)CC1 [Example 19] : 75
CC1(COc2ncc(C#Cc3ccccc3)cc2F)COC1 [Example 29] : 135
CC1(C)CCC(=O)N(Cc2ccc(C#Cc3ccccc3)cn2)C1 [Example 38] : 161
C(#Cc1ccc(NC2CCOCC2)nc1)c1ccccc1 [Example 14] : 110

(I) O=C1OCCN1Cc1ncc(C#Cc2ccccc2)cn1 [Example 42]
(II) O[C@H]1CC[C@H](Nc2ncc(C#Cc3ccccc3)cc2F)CC1 [Example 18]
Could you please tell me which of these two has the higher EC50: I or II ? Your answer should be the label attached to the chosen record.
I

(P) CC1(C)CC(Nc2ncc(C#Cc3ccccc3)cn2)CCC1O (single isomer, unassigned) [Example 17]
(Q) C(#Cc1cnc(NCC2CCOCC2)nc1)c1ccccc1 [Example 20]
Please compare: P and Q . Report which one has the smaller EC50 value. Your answer should be the label attached to the chosen record.
P

(a) OC[C@H]1C[C@H](Oc2ncc(C#Cc3ccccc3)cn2)C1 [Example 26]
(b) C(#Cc1cnc(NC2CCCC2)nc1)c1ccccc1 [Example 1]
Please compare: a and b . Report which one has the smaller EC50 value. Your answer should be the label attached to the chosen record.
b

(A) O=C1OCCN1Cc1ccc(C#Cc2ccccc2)cn1 [Example 31]
(B) OC1CCCCC1Nc1ncc(C#Cc2ccccc2)cn1 (mixture of isomers) [Example 10]
Could you please tell me which of these two has the higher EC50: A or B ? Your answer should be the label attached to the chosen record.
B
(B: 340 nM, A: 56 nM)

(P) CN1CCN(Cc2ccc(C#Cc3ccccc3)cn2)C1=O [Example 35]
(Q) CN(c1ncc(C#Cc2ccccc2)cn1)C1CCOCC1 [Example 43]
Please compare: P and Q . Report which one has the smaller EC50 value. Your answer should be the label attached to the chosen record.
P
(P: 68 nM, Q: 195 nM)

(A) OC[C@H]1CC[C@H](Nc2ncc(C#Cc3ccccc3)cn2)CC1 [Example 6]
(B) C(#Cc1ccc(NC2CCCC2)nc1)c1ccccc1 [Example 13]
Please compare: A and B . Report which one has the smaller EC50 value. Your answer should be the label attached to the chosen record.
B

---

# ASSAYED_TARGET: human mGlu5a receptor (Homo sapiens)
# Construct: expressed in transfected cells
# PROTOCOL_DESCRIPTION: Intracellular Ca2+ mobilization assay
# Assay type: cell-based
# CONDITION_LABEL: HEK293; maximal response in % of the maximal stimulatory effect obtained with saturating concentrations of L-glutamate; HEK-293 human mGlu5a cells, L-glutamate at EC20; read-out: Efficacy (%)
MEASURE_NAME: Emax (%)

OC[C@H]1C[C@H](Oc2ncc(C#Cc3ccccc3)cn2)C1 [Example 26] : 117
CN1CCCN(Cc2ccc(C#Cc3ccccc3)cn2)C1=O [Example 40] : 123
OC1CCC(Oc2ncc(C#Cc3ccccc3)cc2F)CC1 (racemic) [Example 27] : 90
CC1(C)CCC(=O)N(Cc2ccc(C#Cc3ccccc3)cn2)C1 [Example 38] : 94
C(#Cc1cnc(NC2CCCCC2)nc1)c1ccccc1 [Example 15] : 112
CC1(COc2ncc(C#Cc3ccccc3)cn2)COC1 [Example 24] : 88
O[C@H]1CC[C@H](Oc2ncc(C#Cc3ccccc3)cn2)CC1 [Example 23] : 94
O=C1OCCN1Cc1ncc(C#Cc2ccccc2)cn1 [Example 42] : 120
